tested on: AncSZ; assay: phosphorylation enrichment, bacterial display (enrichment ratio); higher = better substrate or ligand; peptides without Tyr show the background;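 further: 11-residue human phosphosite peptides and single-mutation variants displayed on the E. coli surface, counted by deep sequencing, each peptide's frequency after selection divided by its frequency in the unselected input library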;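 further: frequency after pTyr selection over input frequency; kinase dosed for 20-30% of maximal phosphorylation in three min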
Field: class. Source value: phosphorylation enrichment. Ranges: range A (below 0.7), range B (0.7 to below 1), range C (1 or more)

- FSQQTYYPVSN [ABCD1_Y180_R182P]: range B
- EDASEYFENFI [PARP4_Y214_F215Y_YF]: range C

Class? Entry: VSFGEYRFRSV [CFTR_Y515_D513G_YF]
range A

Class? Entry: RPFFLYVAFHN [SGSH_Y174_D179N]
range C

Class? Entry: QYQEKYKQVEQ [HCN4_Y531]
range C

Class? Entry: KHMADYPDFKF [SOX11_Y113_YF]
range B

Class? Entry: GRTPLYMDRQG [AGXT_Y194_G190R]
range A

Class? Entry: KGEDFYSVTCH [FHL1_Y149_C150S]
range C

Class? Entry: GGQSVYHVNLH [HINT1_Y109_H112N]
range A

Class? Entry: FGGLRYGFGGL [KRTAP20-2_Y13_V17G_YF]
range B

Class? Entry: CTTIHYNYICN [TP53_Y234_M237I]
range B

Class? Entry: LPSKDYAEVGR [HP_Y272]
range A

Class? Entry: LDAFIYDAAVL [GRIN2A_Y730]
range C

###

test system: c-Abl (mouse); assay: phosphorylation enrichment, bacterial display (enrichment ratio); higher = better substrate or ligand; peptides without Tyr show the background
Attribute: phosphorylation enrichment
Enter a number only.

What measured phosphorylation enrichment is associated with KGEDFYYVTCH [FHL1_Y149_C150Y] on c-Abl (mouse)?
1.11

What measured phosphorylation enrichment is associated with DPFHVYIKNRV [KCNE3_Y95_YF] on c-Abl (mouse)?
0.692

What measured phosphorylation enrichment is associated with GLPINYTTRRI [LAMA2_Y2894] on c-Abl (mouse)?
0.404

What measured phosphorylation enrichment is associated with EDASEYFENFI [PARP4_Y214_F215Y_YF] on c-Abl (mouse)?
1.07

###

test system: c-Src; experiment: phosphorylation enrichment, bacterial display (enrichment ratio); higher = better substrate or ligand; peptides without Tyr show the background
Field: class. Source value: phosphorylation enrichment. Ranges: lower (below 0.5), middle (0.5 to below 0.8), upper (0.8 or more)

• RFLTRYIFNRE [HLA-DQB1_Y62_V59L_YF] = middle
• LARDMYDKEFF [MET_Y1230_YF] = lower
• SAAAIYMVRHP [PMP22_Y117_T118M] = upper
• LVTRSYLLGNS [LMNA_Y646] = upper

Class? Entry: VPLLEYYWDIF [CDAN1_Y712_R714W]
upper

Class? Entry: TVHCDYLNISH [TAF1L_Y1385_P1389S]
middle

Class? Entry: RRGTGYTLPLP [MAGEC3_Y152_S155P]
upper

Class? Entry: LERYIYNREEL [HLA-DPB1_Y59_F64L]
upper

Class? Entry: RDLTDYLMKIL [ACTA1_Y190]
middle

Class? Entry: SLALFYRNVFH [RBL1_Y792_K794N_YF]
lower

Class? Entry: TEAGNYKLCFD [TMED1_Y103_D102N]
lower

Class? Entry: LDFNEYFRGLN [HPRT1_Y198_D201G_YF]
middle

Class? Entry: SVTCTYSPARN [TP53_Y126_L130R]
middle

Class? Entry: RTLIRYANLSN [BEST1_Y131_G135S]
middle

Class? Entry: RTLSEYARRHV [RERE_Y1259_P1262R]
lower

Class? Entry: QLYGPYLRIHA [BSCL2_Y213_A212P]
upper

Class? Entry: RVLHNYLVWCV [ECEL1_Y400_R404C]
middle

Class? Entry: HHTNEYEYDEL [TGM1_Y134_D132N]
upper

Class? Entry: LAARFYNWVCF [FLT4_Y1231_S1235C_YF]
upper

Class? Entry: DLDLTYIFPNI [PTEN_Y27_YF]
upper

Class? Entry: SVVVPYELPEV [TP53_Y220_P222L]
middle

###

tested on: c-Src; experiment: phosphorylation enrichment, bacterial display (enrichment ratio); higher = better substrate or ligand; peptides without Tyr show the background
Attribute: phosphorylation enrichment
Enter a number only.

Sample answers from the record:
• LSSEMCVKSYT [F5_Y2149_Y2149C] = 1.16
• GNHVSYFQSDG [CACNA1C_Y1757_YF] = 0.42
• MTEEQYIKMNR [ARFGEF2_Y797_K794E] = 0.441

Can you share its phosphorylation enrichment? I mean this sequence: WFQTKYEELQV [KRT6B_Y360_I365V_YF]
0.329

Can you share its phosphorylation enrichment? I mean this sequence: FRRITYFNWRH [PDE6B_Y556_H557Y_YF]
0.673

Can you share its phosphorylation enrichment? I mean this sequence: IKSSIYDNRKE [ARAP2_Y380]
0.58

###

system: AncSZ; test: phosphorylation enrichment, bacterial display (enrichment ratio); higher = better substrate or ligand; peptides without Tyr show the background
Attribute: phosphorylation enrichment
Enter a number only.

Sample answers from the record:
- NFFDTCIKTCL [IQGAP2_Y1445_Y1445C_YF]: 0.809
- IGDENYGEGSS [ACO2_Y665]: 1.25
- EEAAGYAQESQ [CAMKV_Y491]: 1.22
- MGSYNYLGFAW [SPTLC2_Y178_R183W]: 1.11
- RGVTRYIFNRE [HLA-DQB1_Y62_Y58G_YF]: 2.22

What measured phosphorylation enrichment is associated with GLPINYTTRRI [LAMA2_Y2894] on AncSZ?
0.499

###

target: FGFR3 (UniProt P22607); test: phosphorylation enrichment, bacterial display (enrichment ratio); higher = better substrate or ligand; peptides without Tyr show the background
Sequence (P22607 whole entry, looked up): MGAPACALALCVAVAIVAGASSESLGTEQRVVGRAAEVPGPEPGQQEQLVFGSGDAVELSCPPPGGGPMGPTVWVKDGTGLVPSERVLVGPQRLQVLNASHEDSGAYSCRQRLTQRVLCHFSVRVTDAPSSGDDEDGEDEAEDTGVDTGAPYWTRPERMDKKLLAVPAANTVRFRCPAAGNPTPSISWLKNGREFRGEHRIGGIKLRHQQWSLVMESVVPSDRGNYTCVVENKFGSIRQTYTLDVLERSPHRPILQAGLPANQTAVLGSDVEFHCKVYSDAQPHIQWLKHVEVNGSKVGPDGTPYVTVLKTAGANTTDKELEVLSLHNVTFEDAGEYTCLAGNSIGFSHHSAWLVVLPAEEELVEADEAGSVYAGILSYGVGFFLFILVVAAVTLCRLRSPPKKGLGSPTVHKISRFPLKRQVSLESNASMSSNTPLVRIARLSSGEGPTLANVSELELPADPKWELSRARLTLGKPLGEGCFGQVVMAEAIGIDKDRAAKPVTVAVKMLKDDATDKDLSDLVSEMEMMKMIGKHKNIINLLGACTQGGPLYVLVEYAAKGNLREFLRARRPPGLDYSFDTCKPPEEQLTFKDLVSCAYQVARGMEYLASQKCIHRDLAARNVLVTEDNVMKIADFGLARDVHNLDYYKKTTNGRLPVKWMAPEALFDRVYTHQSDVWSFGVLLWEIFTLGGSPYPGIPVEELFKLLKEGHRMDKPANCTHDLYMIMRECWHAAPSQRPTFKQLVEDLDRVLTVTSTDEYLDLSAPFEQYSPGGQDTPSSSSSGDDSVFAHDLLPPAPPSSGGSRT
Label Met when phosphorylation enrichment is at or above 1; anything below gets Not met.

Solved entries:
* MFRVQYNSSVD [LRFN1_Y458_Q455R_YF] | Not met
* LPENPYHSRPR [NDUFA8_Y142] | Not met

Could you now look at the following sequence, please?
Tell me whether phosphorylation enrichment is at least 1 here: IMAFFYMCDSA [CASD1_Y382_R386S_YF]
Met

###

target: MERTK (UniProt Q12866); test: phosphorylation enrichment, bacterial display (enrichment ratio); higher = better substrate or ligand; peptides without Tyr show the background
Sequence (Q12866 whole entry, looked up): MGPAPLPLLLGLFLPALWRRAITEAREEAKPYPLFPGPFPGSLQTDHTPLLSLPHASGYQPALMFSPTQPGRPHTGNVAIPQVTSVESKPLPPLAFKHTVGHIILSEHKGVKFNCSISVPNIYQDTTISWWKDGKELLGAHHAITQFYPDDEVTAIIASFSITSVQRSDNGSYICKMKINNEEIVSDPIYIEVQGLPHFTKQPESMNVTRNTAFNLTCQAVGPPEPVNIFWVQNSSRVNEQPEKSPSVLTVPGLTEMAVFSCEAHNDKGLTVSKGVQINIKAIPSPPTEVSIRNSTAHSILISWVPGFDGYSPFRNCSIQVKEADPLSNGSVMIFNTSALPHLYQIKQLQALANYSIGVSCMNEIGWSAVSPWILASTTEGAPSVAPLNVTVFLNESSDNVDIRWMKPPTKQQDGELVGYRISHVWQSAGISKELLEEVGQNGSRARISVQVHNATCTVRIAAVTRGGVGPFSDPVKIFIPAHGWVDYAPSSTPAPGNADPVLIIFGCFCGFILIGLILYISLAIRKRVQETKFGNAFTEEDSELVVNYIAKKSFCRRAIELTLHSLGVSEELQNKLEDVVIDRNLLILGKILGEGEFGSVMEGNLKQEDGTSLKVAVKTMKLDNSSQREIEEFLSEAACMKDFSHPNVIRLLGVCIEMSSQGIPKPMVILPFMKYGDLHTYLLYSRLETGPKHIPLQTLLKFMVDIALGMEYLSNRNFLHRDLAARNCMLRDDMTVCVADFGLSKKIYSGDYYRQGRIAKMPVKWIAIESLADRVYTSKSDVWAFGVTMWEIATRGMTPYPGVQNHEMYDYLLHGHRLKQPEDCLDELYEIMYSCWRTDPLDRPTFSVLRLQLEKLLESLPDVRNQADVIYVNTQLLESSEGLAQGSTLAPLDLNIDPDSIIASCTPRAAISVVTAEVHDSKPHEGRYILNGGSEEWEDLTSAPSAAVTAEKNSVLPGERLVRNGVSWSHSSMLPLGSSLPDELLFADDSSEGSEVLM
Label Satisfied when phosphorylation enrichment is at or above 0.5; anything below gets Not satisfied.

Solved entries:
* WIPIQYPIISE [NOG_Y222] | Not satisfied
* ARAHKYHGGGG [HBB_Y146_L142R] | Not satisfied

Tell me whether phosphorylation enrichment is at least 0.5 here: DLDLTYIFPNI [PTEN_Y27_YF]
Satisfied

Tell me whether phosphorylation enrichment is at least 0.5 here: MTRDIYETDFF [INSR_Y1185_YF]
Satisfied

Tell me whether phosphorylation enrichment is at least 0.5 here: EEEPVYKAEPE [HCLS1_Y360_E361K]
Satisfied

Tell me whether phosphorylation enrichment is at least 0.5 here: HFGCIYHGTLL [MET_Y1093_V1092I]
Satisfied

Tell me whether phosphorylation enrichment is at least 0.5 here: GNHISYYQSDG [CACNA1C_Y1757_V1755I]
Not satisfied

###

target: EPHB1 (UniProt P54762); experiment: phosphorylation enrichment, bacterial display (enrichment ratio); higher = better substrate or ligand; peptides without Tyr show the background
Sequence (P54762 whole entry, looked up): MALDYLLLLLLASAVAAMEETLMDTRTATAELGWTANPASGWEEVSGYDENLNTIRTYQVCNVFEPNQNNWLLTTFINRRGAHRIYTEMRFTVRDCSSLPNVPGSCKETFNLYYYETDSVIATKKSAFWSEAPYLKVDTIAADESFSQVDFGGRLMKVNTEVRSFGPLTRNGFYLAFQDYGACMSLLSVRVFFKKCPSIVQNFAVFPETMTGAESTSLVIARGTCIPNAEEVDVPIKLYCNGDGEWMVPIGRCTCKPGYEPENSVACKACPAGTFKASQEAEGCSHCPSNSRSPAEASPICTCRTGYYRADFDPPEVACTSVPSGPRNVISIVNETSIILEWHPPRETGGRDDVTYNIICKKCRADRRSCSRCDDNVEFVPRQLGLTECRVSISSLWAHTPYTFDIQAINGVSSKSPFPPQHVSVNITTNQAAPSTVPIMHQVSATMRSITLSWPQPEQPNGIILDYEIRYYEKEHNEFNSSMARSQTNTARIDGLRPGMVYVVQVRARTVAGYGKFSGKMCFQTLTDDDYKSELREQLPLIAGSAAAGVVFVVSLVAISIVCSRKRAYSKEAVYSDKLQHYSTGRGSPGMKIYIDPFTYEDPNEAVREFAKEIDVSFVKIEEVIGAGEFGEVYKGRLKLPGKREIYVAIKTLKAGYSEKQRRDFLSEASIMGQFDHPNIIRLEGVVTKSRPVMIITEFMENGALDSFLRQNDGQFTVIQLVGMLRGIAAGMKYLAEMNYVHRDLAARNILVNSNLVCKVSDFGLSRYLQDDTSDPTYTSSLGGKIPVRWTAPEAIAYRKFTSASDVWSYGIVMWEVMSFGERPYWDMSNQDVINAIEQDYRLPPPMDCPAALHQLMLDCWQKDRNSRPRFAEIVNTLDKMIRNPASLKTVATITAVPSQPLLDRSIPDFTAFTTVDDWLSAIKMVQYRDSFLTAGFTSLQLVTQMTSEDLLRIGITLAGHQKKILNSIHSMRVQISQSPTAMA
readout label: phosphorylation enrichment
Enter a number only.

Sample answers from the record:
• FKDFFYCWNTF [AICDA_Y146_YF] = 0.862
• VYPATYHPDHW [EFCAB12_Y544] = 0.423
• MGCVNYGAYIN [GLB1_Y485_R482C] = 0.793
• QEGPEYWDQQT [HLA-A_Y83_E87Q] = 1.31
• GLPINYTTRRI [LAMA2_Y2894] = 0.323
• VPLLEYYWDIF [CDAN1_Y712_R714W] = 2.27
• MQMEEYRGWVE [BTNL2_Y91] = 0.503
• GESQGYDIMEA [MSH2_Y863_P868A] = 0.469

Can you share its phosphorylation enrichment? I mean this sequence: ERFSYYGMKAV [SLC15A2_Y61]
0.477

Can you share its phosphorylation enrichment? I mean this sequence: IFHENYNAGTF [CFI_Y421_YF]
0.36

Can you share its phosphorylation enrichment? I mean this sequence: DLTQDYEEWKR [ORC6_Y232]
0.796

Can you share its phosphorylation enrichment? I mean this sequence: GRSTYYWPRPR [GAGE12J_Y10]
0.474

Can you share its phosphorylation enrichment? I mean this sequence: KQFWRYFAGNL [SLC25A4_Y112]
0.777

Can you share its phosphorylation enrichment? I mean this sequence: RLLVVYPWTKR [HBB_Y36_Q40K]
0.418
